- assay text: water solubility
- Assay type: physicochemical
- condition: weight to weight basis
assay readout: solubility

[[record]]
compound = "CCCCN(CCCC)CCC(O)c1cc2c(Cl)cc(Cl)cc2c2cc(C(F)(F)F)ccc12 (stereo not shown)"
value_reported = "≤ 200 mg/mL"

